Target: T1, PUF4 RNA-binding domain (Saccharomyces cerevisiae, UniProt P25339 537-888)
T1 sequence: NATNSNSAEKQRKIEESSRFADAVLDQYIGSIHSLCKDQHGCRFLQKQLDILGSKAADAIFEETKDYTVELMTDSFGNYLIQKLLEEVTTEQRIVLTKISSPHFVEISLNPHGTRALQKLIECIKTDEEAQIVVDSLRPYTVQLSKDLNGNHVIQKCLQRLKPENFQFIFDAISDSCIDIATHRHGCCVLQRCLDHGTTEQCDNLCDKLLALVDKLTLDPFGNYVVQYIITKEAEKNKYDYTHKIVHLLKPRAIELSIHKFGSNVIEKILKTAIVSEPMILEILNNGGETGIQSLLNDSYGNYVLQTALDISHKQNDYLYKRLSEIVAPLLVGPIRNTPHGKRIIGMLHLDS
Experiment: Mg; RNA-MaP; 20 mM Na-HEPES pH 7.4, 30 mM KOAc, 0.75 mM MgCl2, 0.1% Tween-20, 5% glycerol, 0.1 mg/mL BSA, 2 mM DTT; 25 C; 0.0125-409.6 nM protein
Conditions: tags: N-His6-TEV cleaved; C-SNAP kept, Cy3B-labelled; label: tethered on chip by stalled RNA polymerase
ENDPOINT NAME: Kd (µM)
One number for each entry, in µM.

>>> reported_value("Ic_S4_P5E.1_K5.1_C5.1_H5.1_A5.1_[T5A]_[T6C]_[A7C]_F5.1_[T9A]_[A10T]_T5.1 (ssRNA) RNA: UUUGACAACUGAUCGUUCUUUCUUGUAACCUAUUUCUUUCUCGAUCAGUUGUCUUU")
0.00591
>>> reported_value("Ie_S2_P4E.1_K4.1_C4.1_H4.1_A4.1_[+6CCTC]_F4.1_T4.1 (ssRNA) RNA: UUUGAUUAAUAUGAUAUCGUUCUUUCUUGUAUACCUCUUAUUCUUUCUCGAUAUCAUAUUAAUCUUU")
0.0148
>>> reported_value("Ib_S4_P3E.1_K3.1_C3.1_H3.1_A3.1_[A6T]_F3.1_[A8T]_T3.1 (ssRNA) RNA: UUUGACAACUGAUCGUUCUUUCUUGUAUUUUUUCUUUCUCGAUCAGUUGUCUUU")
0.0119

We next turn to a different binder, shown below.
Ask: Need Kd of Ib_S4_P4E.1_K4.1_C4.1_H4.1_[A4C]_A4.1_[T7C]_F4.1_T4.1 (ssRNA) RNA: UUUGACAACUGAUCGUUCUUUCUUGUCUACUAUUCUUUCUCGAUCAGUUGUCUUU , thanks.
Reply: 0.0129
